Target: α4β7 integrin (Homo sapiens (Human), UniProt P13612+P26010)
Sequence (P13612 34-1032): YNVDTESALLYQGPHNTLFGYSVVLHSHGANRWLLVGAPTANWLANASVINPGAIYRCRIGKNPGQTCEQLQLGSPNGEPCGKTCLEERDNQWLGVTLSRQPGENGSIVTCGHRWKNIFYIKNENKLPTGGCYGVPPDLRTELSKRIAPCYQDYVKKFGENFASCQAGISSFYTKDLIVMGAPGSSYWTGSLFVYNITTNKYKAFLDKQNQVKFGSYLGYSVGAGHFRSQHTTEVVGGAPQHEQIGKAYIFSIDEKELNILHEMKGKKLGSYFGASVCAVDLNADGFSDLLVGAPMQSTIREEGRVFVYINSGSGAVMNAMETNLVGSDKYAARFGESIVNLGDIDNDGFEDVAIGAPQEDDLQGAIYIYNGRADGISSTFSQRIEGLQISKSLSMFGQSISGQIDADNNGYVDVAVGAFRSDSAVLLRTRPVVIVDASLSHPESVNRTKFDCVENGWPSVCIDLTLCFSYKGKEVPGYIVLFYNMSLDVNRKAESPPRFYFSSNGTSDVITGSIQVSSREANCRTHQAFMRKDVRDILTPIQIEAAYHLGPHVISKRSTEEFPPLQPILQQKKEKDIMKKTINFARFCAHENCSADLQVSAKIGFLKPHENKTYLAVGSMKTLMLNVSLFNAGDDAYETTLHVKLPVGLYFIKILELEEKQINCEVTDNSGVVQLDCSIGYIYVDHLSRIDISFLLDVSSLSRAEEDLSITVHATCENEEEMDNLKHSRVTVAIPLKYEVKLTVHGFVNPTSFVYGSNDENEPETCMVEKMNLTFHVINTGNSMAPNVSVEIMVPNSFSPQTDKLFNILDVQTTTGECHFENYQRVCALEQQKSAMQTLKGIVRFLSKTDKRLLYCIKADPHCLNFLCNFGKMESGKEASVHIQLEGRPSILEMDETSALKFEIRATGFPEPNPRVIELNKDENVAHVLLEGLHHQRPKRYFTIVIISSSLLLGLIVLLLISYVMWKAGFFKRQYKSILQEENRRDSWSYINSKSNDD
Sequence (P26010 20-798): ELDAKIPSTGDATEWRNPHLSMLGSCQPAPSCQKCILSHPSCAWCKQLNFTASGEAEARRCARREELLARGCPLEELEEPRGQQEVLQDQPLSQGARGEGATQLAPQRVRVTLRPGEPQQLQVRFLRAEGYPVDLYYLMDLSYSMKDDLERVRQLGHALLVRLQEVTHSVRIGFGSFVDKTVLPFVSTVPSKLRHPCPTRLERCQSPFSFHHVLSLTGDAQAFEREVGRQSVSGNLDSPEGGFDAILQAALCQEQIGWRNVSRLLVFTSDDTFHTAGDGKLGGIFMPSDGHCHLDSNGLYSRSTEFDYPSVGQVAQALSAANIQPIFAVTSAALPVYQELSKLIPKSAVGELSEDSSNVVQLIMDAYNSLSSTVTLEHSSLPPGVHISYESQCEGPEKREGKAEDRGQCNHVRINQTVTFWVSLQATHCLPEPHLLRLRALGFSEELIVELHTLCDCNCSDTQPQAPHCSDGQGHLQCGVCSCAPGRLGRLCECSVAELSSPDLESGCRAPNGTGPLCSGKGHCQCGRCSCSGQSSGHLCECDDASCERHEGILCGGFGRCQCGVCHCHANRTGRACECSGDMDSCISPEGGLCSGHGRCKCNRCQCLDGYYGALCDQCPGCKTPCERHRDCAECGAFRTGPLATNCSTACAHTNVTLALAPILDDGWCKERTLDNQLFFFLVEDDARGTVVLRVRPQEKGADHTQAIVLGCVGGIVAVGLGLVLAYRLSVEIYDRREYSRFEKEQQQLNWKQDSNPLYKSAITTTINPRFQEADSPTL
Assay: α4β7 Integrin Cell Capture Assay
Assay type: cell-based
Details: Table 1; capture of α4β7 expressing RPM18866 cells on MadCAM-1 extracellular domain-coated plate
endpointLabel: EC50 (nM)

{"itemSmiles": "Cc1cc(C(F)(F)F)c(-c2ccc(C[C@H](NC(=O)c3c(F)cc(N[C@H](C)C(F)(F)F)cc3F)C(=O)O)c3cccnc23)c(=O)n1C", "quantityUnit": "nM", "EC50": 0.3}

[P] CC[C@@H](Nc1cc(C)c(C(=O)N[C@@H](Cc2ccc(-c3c(C(F)(F)F)cc(C)n(C)c3=O)c3ncccc23)C(=O)O)c(F)c1)C(F)(F)F
[Q] CCOCc1cc(OC)c(-c2c(F)cc(C[C@H](NC(=O)c3c(F)cccc3F)C(=O)O)c3cccnc23)c(OC)c1
[R] N#Cc1ccc(-c2ccc(C[C@H](NC(=O)c3c(F)cc(NS(=O)(=O)c4ccccc4)cc3F)C(=O)O)c3cccnc23)c(Cl)c1
[S] Cc1ccccc1-c1ccc(C[C@H](NC(=O)c2c(F)cc(NS(=O)(=O)c3ccc(-c4ccnc(F)c4)cc3)cc2F)C(=O)O)c2cccnc12
[T] Cc1cc(C(F)(F)F)c(-c2ccc(C[C@H](NC(=O)c3c(F)cc(N4CCOC[C@@H]4C(F)(F)F)cc3F)C(=O)O)c3cccnc23)nc1C
Hey, quick one: sort these by EC50, low to high? Write the labels in rank order as requested.
P, T, Q, R, S
(P: 0.2 nM, T: 0.5 nM, Q: 8.6 nM, R: 20 nM, S: 30.5 nM)
